Target: glucocorticoid receptor (Homo sapiens)
Sequence (P04150 1-777): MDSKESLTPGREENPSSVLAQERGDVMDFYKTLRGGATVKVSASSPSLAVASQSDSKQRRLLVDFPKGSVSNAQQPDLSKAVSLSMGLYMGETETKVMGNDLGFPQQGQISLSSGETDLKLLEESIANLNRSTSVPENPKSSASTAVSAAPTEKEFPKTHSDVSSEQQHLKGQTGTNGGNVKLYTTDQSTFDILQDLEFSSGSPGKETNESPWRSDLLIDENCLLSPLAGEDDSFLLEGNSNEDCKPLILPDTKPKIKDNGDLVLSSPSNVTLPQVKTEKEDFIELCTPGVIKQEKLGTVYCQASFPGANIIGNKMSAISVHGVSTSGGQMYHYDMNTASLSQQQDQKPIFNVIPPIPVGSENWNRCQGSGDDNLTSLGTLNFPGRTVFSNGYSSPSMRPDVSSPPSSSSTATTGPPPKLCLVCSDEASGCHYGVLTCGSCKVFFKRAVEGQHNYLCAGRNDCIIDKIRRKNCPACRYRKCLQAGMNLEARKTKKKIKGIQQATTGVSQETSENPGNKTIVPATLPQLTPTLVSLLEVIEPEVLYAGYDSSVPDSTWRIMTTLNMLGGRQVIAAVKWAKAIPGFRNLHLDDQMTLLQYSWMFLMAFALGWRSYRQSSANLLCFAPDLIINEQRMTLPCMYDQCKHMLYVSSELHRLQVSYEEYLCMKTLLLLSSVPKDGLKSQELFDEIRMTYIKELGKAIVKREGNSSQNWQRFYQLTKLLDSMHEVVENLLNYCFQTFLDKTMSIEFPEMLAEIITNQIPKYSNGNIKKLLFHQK
pKi: −log10 of the molar value.
Quick list: pKi per entry.
recorded endpoint: pKi

1. CCS(=O)(=O)Nc1cccc(C=C2c3ccccc3CCc3c(Cl)cccc32)c1 [Example 208(b)]
> 6.30
2. O=c1[nH]c2cc(/C=C3\c4ccccc4CCc4cc(F)ccc43)ccc2o1 [Example 451]
> 5.00
3. Oc1cccc(/C=C2\c3ccc(Cl)cc3CCc3cccnc32)c1 [Example 245]
> 5.00
4. CS(=O)(=O)NCc1ccc(/C=C2\c3ccccc3CCc3cc(Cl)ccc32)cc1 [Example 346]
> 5.00
5. Fc1ccc(/C=C2/c3ccc(F)cc3CCc3ncccc32)cc1 [Example 581]
> 5.00
6. NC(=O)Nc1ccc(C=C2c3ccccc3CCc3ccccc32)cc1 [Example 129]
> 6.30
7. FC(F)(F)c1cc(CC2c3ccccc3CCc3ccccc32)cc(C(F)(F)F)c1 [Example 141]
> 6.30
8. Cc1cccc2c1C(=Cc1cccc(NS(C)(=O)=O)c1)c1ccccc1CC2 [Example 304]
> 6.30
9. O=c1[nH]c2cc(/C=C3\c4ccccc4CCc4ncsc43)ccc2o1 [Example 562]
> 6.30
10. O=c1[nH]c2cc(/C=C3\c4ccccc4COc4cc(Cl)ccc43)ccc2n1CCN1CCOCC1 [Example 647]
> 6.00
11. O=c1[nH]c2ccc(C=C3c4cc(Cl)ccc4COc4ccccc43)cc2[nH]1 [Example 715]
> 6.00
12. Cc1nc(S(=O)(=O)Nc2cccc(C=C3c4ccccc4CCc4ccccc43)c2)cn1C [Example 96]
> 5.00
13. COc1ccccc1C=C1c2ccccc2CCc2ccccc21 [Example 31]
> 5.00
14. Oc1cc(F)cc(C=C2c3ccccc3CCc3ccccc32)c1 [Example 155]
> 6.30
15. CS(=O)(=O)Nc1cccc(/C=C2/c3ccccc3COc3ccccc32)c1 [Example 268]
> 6.30
16. C/C(=C1\c2ccc(Cl)cc2COc2ccccc21)c1cccc(NS(C)(=O)=O)c1 [Example 798]
> 6.30
17. COc1ccc2c(c1)COc1ccccc1[C@H]2Cc1cccc(NS(C)(=O)=O)c1 [Example 734]
> 6.30
18. CC(=C1c2ccccc2CCc2ccccc21)c1cccc(NS(C)(=O)=O)c1 [Example 765]
> 6.30
